- Target under test: Adrenergic receptor alpha-1 (Rattus norvegicus, UniProt P15823+P23944+P43140)
- Assay protocol: Antagonist activity at alpha1-adrenergic receptor in Wistar rat endothelium denuded thoracic aorta assessed as inhibition of phenylephrine-induced contraction preincubated for 30 mins prior to phenylephrine-challenge
- Assay type: tissue-based
Value type: pA2
Lab note: record just the number, no unit beside it.

Entry under test: COc1cc2nc(N3CCN(c4ccccc4)CC3)nc(N)c2cc1OC . Its pA2 was 8.74

Entry under test: COc1cc2nc(N3CCN(C)CC3)nc(N)c2cc1OC . Its pA2 was 9.23

Entry under test: COc1cc2nc(CNc3cccc([N+](=O)[O-])c3)nc(N)c2cc1OC . Its pA2 was 8.09
